experiment: Kinetic solubility of the compound at pH 2.0 by nephelometry; format: physicochemical; details: buffer, read-out: Kinetic_solubility
READOUT KIND: solubility kinetic (µg/mL)

Field: example entries. Status: answers known.
STRUCTURE STRING	solubility kinetic [µg/mL]
COc1ccc(-c2cnc(NC(=O)c3ccc(F)cc3)n2C)cc1	12.5
Cn1c(-c2ccc(Cl)cc2)cnc1NC(=O)c1ncc[nH]1	50

P = Cn1c(-c2ccccc2)cnc1NC(=O)c1ccc(F)cc1
Q = Cn1c(-c2cccc(Cl)c2)cnc1NC(=O)c1ncc[nH]1
Of P and Q , which shows the smaller solubility kinetic value? Could you answer with the label of the item you picked?
Q
(Q: 12.5 µg/mL, P: 25 µg/mL)
